Please provide measured IC50 for the entries that follow.
# Test system: MIA PaCa-2 cells with Kras G12C mutation
# testProtocol: Cell proliferation inhibition experiment, 3D spheroid, CellTiter-Glo (Test Example 3)
# Assay type: cell-based, human
# protocolConditions: Homo sapiens, 120 h, 5 days, read-out: MIA-PaCa2 IC50
Give bare numbers, in nM.

* C=CC(=O)N1CCN2c3c(c(=O)n(-c4c(C)ccnc4C(C)C)c4nc(-c5c(O)cccc5F)c(Cl)cc34)N(C)C(=O)[C@H]2C1 [Compound Z25] | 8
* C=CC(=O)N1CCN2c3c(c(=O)n(-c4c(C)ccnc4C(C)C)c4nc(-c5c(O)cccc5F)c(Cl)cc34)N(C)C(=O)[C@H]2C1 (single isomer, unassigned) [Compound Z25-2] | 5

Value lookup for IC50; key = [2H]C([2H])([2H])N1C(=O)[C@H]2CN(C(=O)C=C)CCN2c2c1c(=O)n(-c1c(C)ccnc1C(C)C)c1nc(-c3c(O)cccc3F)c(Cl)cc21 5

---

Please provide measured IC50 for the entries that follow.
# System: NCI-H358 cells with Kras G12C mutation
# testProtocol: Cell proliferation inhibition experiment, 3D spheroid, CellTiter-Glo (Test Example 1)
# Assay type: cell-based, human
# protocolConditions: 5 days
Numbers only, in nM.

- C=CC(=O)N1CCN2c3c(c(=O)n(-c4c(C)ccnc4C(C)C)c4nc(-c5c(O)cccc5F)c(F)cc34)OC[C@H]2C1 (single isomer, unassigned) [Compound Z1-1]: 31

Go through the items and report each one's IC50.
1. C=CC(=O)N1C[C@@H]2C(=O)Nc3c(c4cc(F)c(-c5c(O)cccc5F)nc4n(-c4c(C)ccnc4C(C)C)c3=O)N2C[C@H]1C [Compound Z35]
2. C=CC(=O)N1C[C@@H]2C(=O)N(C)c3c(c4cc(F)c(-c5c(O)cccc5F)nc4n(-c4c(C)ccnc4C(C)C)c3=O)N2C[C@H]1C (single isomer, unassigned) [Compound Z10-2]
3. C=CC(=O)N1CCN2c3c(c(=O)n(-c4c(C)ccnc4C(C)C)c4nc(-c5c(O)cccc5F)c(F)cc34)N(CC)C(=O)[C@H]2C1 (single isomer, unassigned) [Compound Z30-2]
4. C=CC(=O)N1CCN2c3c(c(=O)n(-c4c(C)ccnc4C(C)C)c4nc(-c5c(O)cccc5F)c(F)cc34)N(C)C(=O)[C@H]2C1 (single isomer, unassigned) [Compound Z9-1]

1. 6
2. 4
3. 47
4. 218

---

Please provide measured IC50 for the entries that follow.
# Tested on: NCI-H358 cells with Kras G12C mutation
# testProtocol: Cell proliferation inhibition experiment, 3D spheroid, CellTiter-Glo (Test Example 1)
# Assay type: cell-based, human
# protocolConditions: 5 days
One number for each entry, in nM.

See these solved cases before continuing.
- C=CC(=O)N1CCN2c3c(cnc4c3CCN(c3c(C)ccc5[nH]ncc35)C4)OC[C@H]2C1 [Compound Z2]: 773
- C=CC(=O)N1CCN2c3c(c(=O)n(-c4c(C(C)C)ncnc4C(C)C)c4c(F)c(-c5c(O)cccc5F)c(Cl)cc34)NC(=O)[C@H]2C1 (single isomer, unassigned) [Compound Z37-1]: 0.7
- C=CC(=O)N1C[C@@H]2C(=O)N(C)c3c(c4cc(Cl)c(-c5c(O)cccc5F)nc4n(-c4c(C)ccnc4C(C)C)c3=O)N2C[C@H]1C (single isomer, unassigned) [Compound Z27-1]: 12
- C=CC(=O)N1C[C@@H]2C(=O)N(C)c3c(c4cc(Cl)c(-c5c(O)cccc5F)c(F)c4n(-c4c(C(C)C)ncnc4C(C)C)c3=O)N2C[C@H]1C (single isomer, unassigned) [Compound Z50-1]: 0.3

Value lookup for IC50; key = C=CC(=O)N1CCN2c3c(c(=O)n(-c4c(C(C)C)ncnc4C(C)C)c4c(F)c(-c5c(O)cccc5F)c(Cl)cc34)NC(=O)[C@H]2C1 (single isomer, unassigned) [Compound Z37-2] 165

Origin of measurements: patent US12054497B2
